read-out: Tissue Factor, F3 (gene 2152); test: BSK_CASM3C_TissueFactor: BioMAP Diversity Plus: CASM3C Assay for Tissue Factor Biomarker Activity (AID 2283052); details: primary human coronary artery smooth muscle cells; actives raise or lower the signal;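 further: cell surface tissue factor protein level read by ELISA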
Activity calls are given as the source filed them. How the source made its calls: active means hit-call score of the fitted dose curve at least 0.9, where 1 is the maximum; inactive means score below 0.9.
Valid outcomes are listed here; reply with one: 1 (yes) (active), 0 (no) (inactive)

>>> class_label("COc1ccc(C(=O)c2ccccc2O)c(O)c1")
"0 (no)"
>>> class_label("Sc1nc2ccccc2s1")
"1 (yes)"
>>> class_label("CCC[Si](OC(C)=O)(OC(C)=O)OC(C)=O")
"0 (no)"
>>> class_label("O=[N+]([O-])c1cc(S(=O)(=O)Nc2ccccc2)ccc1Nc1ccccc1")
"0 (no)"
>>> class_label("CC(C)C1OCCN1CCOC(=O)NCCCCCCNC(=O)OCCN1CCOC1C(C)C (stereo unspecified)")
"0 (no)"

Next, consider the following molecule.
Look up the recorded call for Cc1cccnc1 in this test.
0 (no)

----------
target: Cellular tumor antigen p53 (Homo sapiens) (UniProt P04637); assay: TOX21_p53_BLA_p2_ratio: Tox21 HCT-116 p53 Agonism Beta-lactamase Assay, Ratio, Phase 2 (AID 2283592)
Sequence (P04637 whole entry, looked up): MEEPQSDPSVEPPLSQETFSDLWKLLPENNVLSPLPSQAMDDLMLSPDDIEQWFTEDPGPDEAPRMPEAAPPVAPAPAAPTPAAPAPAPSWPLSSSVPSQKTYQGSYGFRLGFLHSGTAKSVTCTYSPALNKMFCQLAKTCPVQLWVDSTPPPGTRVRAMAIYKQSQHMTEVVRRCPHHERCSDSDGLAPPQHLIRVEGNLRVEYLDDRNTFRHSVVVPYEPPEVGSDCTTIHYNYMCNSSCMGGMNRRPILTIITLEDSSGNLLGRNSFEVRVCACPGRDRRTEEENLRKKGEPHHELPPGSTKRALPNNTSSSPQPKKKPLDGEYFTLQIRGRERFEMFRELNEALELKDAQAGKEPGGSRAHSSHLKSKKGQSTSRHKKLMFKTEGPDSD
Records with an inconclusive call do not appear. Calls of active or inactive are those of the source. How the source made its calls: active means hit-call score of the fitted dose curve at least 0.9, where 1 is the maximum; inconclusive means response in the unintended direction; inactive means score below 0.9.
Outcomes you can answer with include only these: true = active, false = inactive

Previously resolved entries follow.
>>> class_label("CCCCCCCCCCCCCCCC(=O)NCCO")
"false"
>>> class_label("CCOC(=O)c1c[nH]c2cc(OCC(C)C)c(OCC(C)C)cc2c1=O")
"false"
>>> class_label("CCOC(=O)/C=C(C)/C=C/C=C(C)/C=C/c1c(C)cc(OC)c(C)c1C")
"false"
>>> class_label("Nc1ccc(S(=O)(=O)O)cc1")
"false"
>>> class_label("CCC(C)(C)C")
"false"
>>> class_label("OCC(CBr)(CBr)CBr")
"false"
>>> class_label("Nc1c2c(nc3c1CCC3)CCCC2")
"false"
>>> class_label("O=C(O)Cc1cccc(-c2cc(CCCCCCc3ccc(O[C@H]4O[C@H](CO)[C@@H](O)[C@H](O)[C@@H]4O)c(-c4cccc(CC(=O)O)c4)c3)ccc2O[C@H]2O[C@H](CO)[C@@H](O)[C@H](O)[C@@H]2O)c1")
"false"

Give the logged outcome of this assay for the following compound: COc1cc2c(cc1OC)-c1cc3ccc(OC)c(OC)c3c[n+]1CC2
false

Returns: the outcome recorded for Clc1cccc(Cl)c1NC1=NCCN1 in this assay.
false

Status in this test for CO[Si](CCCNCCC[Si](OC)(OC)OC)(OC)OC ?
false

----------
experiment: TOX21_p53_BLA_p3_viability: Viability Assessment in the Tox21 HCT-116 p53 Agonism Beta-lactamase Assay, Phase 3 (AID 2283593);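 further: cells exposed to compound for 16 h before reading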
Inconclusive results are not listed. Calls of active or inactive are those of the source. Rule for the calls: active = hit-call score of the fitted dose curve at least 0.9, where 1 is the maximum; inconclusive = response in the unintended direction; inactive = score below 0.9.
The reply should be one of these categories: active, inactive

Would you mind telling me which call this test gave CNC[C@H](O)c1ccc(O)c(O)c1 ?
inactive

What classification did C[C@H]1C[C@H]2[C@@H]3CCC4=CC(=O)C=C[C@]4(C)[C@H]3C(=O)C[C@]2(C)[C@@]1(O)C(=O)CO end up with in this test?
inactive

# outcome recorded in this test, key = O=C(O)CCC(=O)C(=O)O
inactive

Test call, this compound: CCCCCCCCOCCC#N
inactive

Recorded test outcome, item O=C1NCN(c2ccccc2)C12CCN(CCCC(c1ccc(F)cc1)c1ccc(F)cc1)CC2
active
